Target: T1, human Notch1 NRR_Avi_His recombinant protein (human, UniProt P46531 1434-1737)
T1 construct: Secreted from CHO-PACE cells; cleaved at S1 into an N-terminal ~26 kDa half (LNR-A, B, C, HD1) and a C-terminal ~12 kDa half (HD2 and tag) that stay associated non-covalently; written here as one chain; also called recombinant human Notch1 NRR; human Notch1 NRR immunogen
T1 sequence: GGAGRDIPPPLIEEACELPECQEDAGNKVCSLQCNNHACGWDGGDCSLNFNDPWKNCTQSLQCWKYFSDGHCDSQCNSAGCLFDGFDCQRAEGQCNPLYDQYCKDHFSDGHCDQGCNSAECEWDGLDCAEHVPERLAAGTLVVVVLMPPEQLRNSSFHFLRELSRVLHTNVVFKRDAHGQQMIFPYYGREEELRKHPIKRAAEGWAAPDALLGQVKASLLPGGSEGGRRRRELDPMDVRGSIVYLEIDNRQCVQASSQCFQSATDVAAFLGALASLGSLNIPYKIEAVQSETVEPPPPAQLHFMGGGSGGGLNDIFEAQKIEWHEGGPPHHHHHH
Assay: SPR (Biacore T100), antibody captured by anti-human IgG-Fc, NRR_Avi_His as analyte, 1:1 Langmuir model
Assay metric: koff
Please append the unit to your numeric answer.

Please supply the value of reported koff for the item humanized 438 VH1.1/VL1.1 (antibody, human IgG1, V domains shown) VH: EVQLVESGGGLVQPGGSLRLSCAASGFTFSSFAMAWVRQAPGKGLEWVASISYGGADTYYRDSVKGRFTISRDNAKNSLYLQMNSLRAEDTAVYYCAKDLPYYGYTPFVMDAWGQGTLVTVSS VL: DIQLTQSPSSLSASVGDRVTITCRASQRINTDLHWYQQKPGKAPKVLIKFASQTISGVPSRFSGSGSGTDFTLTISSLQPEDFATYYCQQSNSWPYTFGQGTKLEIK
0.000422 s⁻¹

Please supply the value of reported koff for the item humanized 438 VH1.1/VL1.0 (antibody, human IgG1, V domains shown) VH: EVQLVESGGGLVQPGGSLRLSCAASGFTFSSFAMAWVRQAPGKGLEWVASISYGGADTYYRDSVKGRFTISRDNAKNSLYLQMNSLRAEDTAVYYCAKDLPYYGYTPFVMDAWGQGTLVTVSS VL: DIQMTQSPSSLSASVGDRVTITCRASQRINTDLHWYQQKPGKAPKLLIYFASQTISGVPSRFSGSGSGTDFTLTISSLQPEDFATYYCQQSNSWPYTFGQGTKLEIK
0.00103 s⁻¹

Please supply the value of reported koff for the item humanized 438 VH1.0/VL1.1 (antibody, human IgG1, V domains shown) VH: EVQLVESGGGLVQPGGSLRLSCAASGFTFSSFAMAWVRQAPGKGLEWVASISYGGADTYYRDSVKGRFTISRDNAKNSLYLQMNSLRAEDTAVYYCARDLPYYGYTPFVMDAWGQGTLVTVSS VL: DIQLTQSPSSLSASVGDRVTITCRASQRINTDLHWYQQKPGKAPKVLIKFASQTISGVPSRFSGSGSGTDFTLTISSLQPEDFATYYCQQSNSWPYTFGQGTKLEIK
0.000389 s⁻¹
